Molecular target: Tyrosine-protein kinase ZAP-70 (Homo sapiens) (UniProt P43403);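 note: values are mean percent inhibition of ZAP-70 kinase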
Sequence (whole entry): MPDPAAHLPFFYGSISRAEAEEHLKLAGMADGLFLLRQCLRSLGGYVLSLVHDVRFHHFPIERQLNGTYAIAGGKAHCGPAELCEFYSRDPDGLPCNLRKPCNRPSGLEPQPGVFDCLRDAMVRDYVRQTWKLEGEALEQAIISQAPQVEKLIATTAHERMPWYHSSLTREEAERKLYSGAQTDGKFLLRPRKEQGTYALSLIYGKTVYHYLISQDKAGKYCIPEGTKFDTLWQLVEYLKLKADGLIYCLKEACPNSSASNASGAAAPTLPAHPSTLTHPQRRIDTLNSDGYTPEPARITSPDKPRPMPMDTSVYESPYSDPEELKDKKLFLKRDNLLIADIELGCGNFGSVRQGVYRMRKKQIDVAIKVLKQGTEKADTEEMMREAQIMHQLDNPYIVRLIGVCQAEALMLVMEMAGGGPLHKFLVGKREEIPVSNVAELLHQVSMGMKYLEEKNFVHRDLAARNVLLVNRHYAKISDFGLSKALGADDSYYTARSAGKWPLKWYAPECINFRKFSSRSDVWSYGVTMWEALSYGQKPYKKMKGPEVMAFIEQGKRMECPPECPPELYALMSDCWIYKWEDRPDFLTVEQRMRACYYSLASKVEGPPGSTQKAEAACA
Details: at 0.1 µM
measureName: inhibition (%)
Give your result in % as a bare value.

Prompt: Quick check: inhibition of `CS(=O)(=O)CCNCc1ccc(-c2ccc3ncnc(Nc4ccc(OCc5cccc(F)c5)c(C(F)(F)F)c4)c3c2)o1` ?
Response: -4.38

Prompt: Note, next up: `Cc1nn(C)c2cc(N(C)c3ccnc(Nc4cccc(S(N)(=O)=O)c4)n3)ccc12`
Response: -2.66

Prompt: Also, `COc1cc(C=NNc2ncnc3c2cnn3-c2ccccc2)ccc1O` please.
Response: 3.12

Prompt: Okay, and `NS(=O)(=O)c1cccc(-c2ccc3c(NC(=O)C4CC4)n[nH]c3c2)c1` ?
Response: -1.92

Prompt: Try CC1=C(C(=O)Nc2ccc3[nH]ncc3c2)C(c2ccc3ccccc3c2)CC(=O)N1 (configuration not stated) next.
Response: 3.08

Prompt: Next entry: `Nc1nc(-c2ccc3c(c2)C(=Cc2cc(Br)c(O)c(Br)c2)C(=O)N3)cs1`
Response: 0.01

Prompt: What about `CCN1CCC(CC(=O)Nc2n[nH]c3nc(-c4cccs4)c(Br)cc23)CC1` ?
Response: -3.15

Prompt: # repeat for `O=C1NC(=O)C(c2ccc(Cl)cc2)=C1Nc1ccc(Cl)c(C(=O)O)c1`
Response: -3.81

Prompt: Here is the next compound: `COc1cccc(-n2ncc3c(N/N=C/c4cccc(F)c4)ncnc32)c1`
Response: -0.37

Prompt: Try this compound too: `CCn1c(-c2nonc2N)nc2cnc(Oc3cccc(NC(=O)c4ccc(OCCN5CCOCC5)cc4)c3)cc21`
Response: -1.7

Prompt: Another: `COc1ccc(-c2ccncc2)cc1C(N)=O`
Response: -0.9

Prompt: Please answer likewise for `Fc1cccc(COc2ccc(Nc3ncnc4cc(-c5ccc[nH]5)sc34)cc2Cl)c1`
Response: -0.46

Prompt: Try this compound next: `Cc1ccc(C(=O)NC2CCCCC2)cc1-c1ccc(C(=O)NCC2CC2)cc1`
Response: 2.48

Prompt: Please answer likewise for `Nc1nc(-c2ccccn2)c(-c2ccc3ncccc3n2)s1`
Response: 0.82

Prompt: Same read-out for `CS(=O)(=O)CCNCc1ccc(-c2ccc3ncnc(Nc4ccc(OCc5ccccc5)c(Cl)c4)c3c2)o1` ?
Response: -7.6

Prompt: One more compound: `COc1cc2ncn(-c3cc(OCc4ccccc4Cl)c(C(N)=O)s3)c2cc1OC`
Response: -2.94

Prompt: // query: `Nc1ncnc2occ(-c3ccc(NC(=O)Nc4cccc(C(F)(F)F)c4)cc3)c12`
Response: 1.4

Prompt: Param item: `O=C(Nc1n[nH]c2nc(-c3ccco3)c(Br)cc12)C1CC1`
Response: 1.19

Prompt: Same thing, different compound: `O=C1NC(=O)C(N2CCc3ccccc32)=C1c1ccc(Cl)cc1`
Response: 3.14

Prompt: Another: `CCn1c(-c2nonc2N)nc2c(N3CCCC3)nccc21`
Response: 1.14

Prompt: Then `CNC(=O)c1cncc(/C=C/c2c(Cl)cccc2Cl)c1` ?
Response: 0.11

Prompt: And for `CS(=O)(=O)Nc1ccc(N/C=C2\C(=O)Nc3ccccc32)cc1` ?
Response: -3.14

Prompt: Field entry: `Cc1cccc(-c2n[nH]cc2-c2ccc3ncccc3n2)n1`
Response: 3.21

Prompt: Queued: `CC(C)=Cc1cccc2c1/C(=N/Nc1ccc(S(N)(=O)=O)cc1)C(=O)N2`
Response: 4.6

Prompt: Please do the same for `CCn1c(-c2nonc2N)nc2cncc(C(=O)N3CC[C@H](N)C3)c21` as well.
Response: -1.89

Prompt: Try `CCn1c(-c2nonc2N)nc2ccncc21` next.
Response: 7.67

Prompt: // same read-out, input: `c1cnn2ncc(-c3ccnc(Nc4ccc5c(c4)OCCO5)n3)c2c1`
Response: 0.79

Prompt: Try the compound `NS(=O)(=O)c1ccc(N/N=C2\C(=O)Nc3ccc(C(=O)NCCc4c[nH]cn4)cc32)cc1`
Response: 1.45

Prompt: Same thing, different compound: `Cc1cc(O)cc(C)c1/C=C/c1cncc(-c2nn[nH]n2)c1`
Response: -1.14

Prompt: Please answer likewise for CC1=C(C(=O)Nc2ccc3[nH]ncc3c2)C(c2ccc(Cl)c(Cl)c2)CC(=O)N1 (configuration not stated)
Response: 0.71

Prompt: `CCn1c(-c2nonc2N)nc2cncc(C(=O)N3CCNCC3)c21` ?
Response: 2.85

Prompt: Please give the result for `COc1ccc(-c2coc3ncnc(N)c23)cc1` too.
Response: 0.06

Prompt: Follow-up entry: `COc1ccc(-c2nn3ncccc3c2-c2ccnc(Nc3ccc(Cl)c(C(F)(F)F)c3)n2)cc1`
Response: 0.91

Prompt: Now this one: `CN(C)c1cc2c(Nc3ccc4nc(Cc5ccccc5)[nH]c4c3)ncnc2cn1`
Response: 6.34

Prompt: What would you report for `COc1ccccc1Nc1ncc(-c2ccccc2)o1` ?
Response: 0.73

Prompt: Same read-out for `COc1cc2ncn(-c3cc(O[C@H](C)c4ccccc4Cl)c(C(N)=O)s3)c2cc1OC` ?
Response: 2.5

Prompt: Now this one: `O=C1Nc2ccc(C(=O)c3ccco3)cc2C1=Cc1cc(Cl)c(O)c(Cl)c1`
Response: 2.14

Prompt: Also `COC(=O)Nc1nc2cc(Oc3cccc(NC(=O)Nc4cc(C(F)(F)F)ccc4F)c3)ccc2[nH]1` , if possible.
Response: 0.93

Prompt: Also COc1ccc2cc(-c3c(-c4ccncc4)nc(-c4ccc([S+](C)[O-])cc4)n3C)ccc2c1 (configuration not stated) ?
Response: 1.94

Prompt: Further, for `CC(=O)Nc1cccc(C#Cc2cncnc2Nc2ccc(OCc3cccc(F)c3)c(Cl)c2)n1` ?
Response: 2.6

Prompt: Next: `CCn1c(-c2nonc2N)nc2c(C#CC(C)(C)O)nc(OC[C@@H](N)c3ccccc3)cc21`
Response: -0.65

Prompt: Also, `COc1ccc(COc2ccc(Cc3cnc(N)nc3N)cc2OC)cc1` please.
Response: 3.08
